Reported LogP values for the following compounds.
# CONDITION LABEL: pH 2.7
Marks after values point to notes of the source that are not given here.
MEASUREMENT LABEL: LogP

>>> result("CC(C)(C)OC(=O)Nc1cccc(CON=C(C(N)=NO)c2ccncc2)n1")
"1.53^[a]"
>>> result("Cn1c(C(=NOCc2cccc(N)n2)c2ncccn2)noc1=O")
"0.39^[a]"
>>> result("CCCCOC(=O)Nc1cccc(CON=C(c2cccnc2)c2nc(=O)on2C)n1")
"2.47^[a]"
>>> result("CCCCC(=O)Nc1cccc(CON=C(c2ccncc2)c2nc(=O)on2C)n1")
"1.88^[a]"
>>> result("CC(C)(C)OC(=O)N(COCC[Si](C)(C)C)c1nc(CON=C(C#N)c2cccs2)cs1")
"6.35^[a]"
>>> result("CC(C)(C)OC(=O)Nc1nc(CON=C(C#N)c2cccs2)cs1")
"3.65^[a]"
>>> result("Cn1c(C(=NOCc2cccc(N)n2)c2cccnc2)noc1=O")
"0.52 ± 0.46^[a]"
>>> result("CCCCOC(=O)Nc1cccc(CON=C(c2ccncc2)c2nc(=O)on2C)n1")
"2.32^[a]"
>>> result("CC(C)(C)OC(=O)Nc1cccc(CON=C(C(N)=NO)c2ncccn2)n1")
"1.58 + 1.87^[a]"
>>> result("CCn1oc(=O)nc1C(=NOCc1cccc(N)n1)c1ccccn1")
"0.69^[a]"
>>> result("CC(C)(C)OC(=O)Nc1nc(CON=C(C(N)=NO)c2ccsc2)cs1")
"2.17^[a]"
>>> result("CCCCCOC(=O)Nc1cccc(CON=C(c2cccnc2)c2noc(=O)n2C)n1")
"3.37^[a]"
>>> result("CCCCOC(=O)Nc1cccc(CON=C(c2ncccn2)c2noc(=O)n2C)n1")
"2.68^[a]"
>>> result("C#CCCOC(=O)Nc1cccc(CON=C(c2ccncc2)c2nc(=O)on2C)n1")
"1.74^[a]"

Reference source: patent US20160002217A1
